Values compiled from patent US20250388542A1.

system: HCC1954; test: CellTiter-Glo cytotoxicity, cancer cell line panel / breast cancer study; format: cell-based; conditions: HCC1954, Ductal breast carcinoma
property: pIC50
Give bare numbers, as −log10 of the molar value.

**Q:** # get_value(readout='pIC50', item= N.N.[Cl][Pt][Cl] [Cisplatin, cisplatin, reference compound] )
**A:** 6.11

====

Exercise: for every item that follows, state its recorded pIC50.
Test system: NCI-H69
Assay: CellTiter-Glo luminescent cell viability assay
Assay type: cell-based
Settings: Homo sapiens
Experimental: The objective of this study is to investigate potential cell killing effect of Compounds 1-15 on 3 cancer cell lines. 50% inhibition concentration (IC50) was determined for these compounds in various cancer cell lines using CellTiter-Glo™ luminescent cell viability assay at different compound concentrations. Each cell line (e.g., NCI-H209; NCI-H69; and SW1271) was treated with Compounds 1-15 and culture medium contains 0.2% [v/v] DMSO vehicle control. […]
One number for each entry, as −log10 of the molar value.

Field: example entries. Status: answers known.
N=C(N)c1cccc(CCCCCCCc2cccc(C(=N)N)n2)n1 ... 6.16
N=C(N)c1ccc(OCCCCOc2ccc(C(=N)N)nc2)cc1 ... 6.06
N=C(N)c1ccc(O[C@H]2CC[C@@H](Oc3ccc(C(=N)N)nc3)CC2)cc1 ... 5.96
N=C(N)c1cnc(OCCCCCOc2cnc(C(=N)N)cn2)cn1 ... 6.09

// next item, pIC50 requested
**Q:** # get_value(readout='pIC50', item= N=C(N)c1ccc(OCCCCCOc2ccc(C(=N)N)nc2)cc1 )
**A:** 6.07

====

experiment: Human microsomal CL rate; assay type: in vitro ADME; details: human microsomes
Exercise: for every item that follows, state its recorded microsomal CLint.
Give bare numbers, in µL/min/mg.

N=C(N)c1cccc(CCCCCCCc2cccc(C(=N)N)n2)n1 [Compound 8] ... 11

Would you mind giving microsomal CLint for every compound in the list below?
1. N=C(N)c1ccc(O[C@H]2CC[C@H](Oc3ccc(C(=N)N)nc3)CC2)cc1 [Compound 13]
2. N=C(N)c1ccc(OCCCCCOc2ccc(C(=N)N)cn2)cc1 [Compound 2]
3. N=C(N)c1cncc(CCCCCCCc2cncc(C(=N)N)c2)c1 [Compound 9]
4. N=C(N)c1ccc(OCCCCCOc2ccnc(C(=N)N)c2)cc1 [Compound 19]
5. N=C(N)c1cccc(OCCCCCOc2ccc(C(=N)N)nc2)c1 [Compound 11]
6. N=C(N)c1ccc(OCCCCCOc2ccc(C(=N)N)nc2)cn1 [Compound 20]

**A:**
11
9.8
13
27.7
5.2
4

**Q:** # get_value(readout='microsomal CLint', item= N=C(N)c1ccc(OCCCCCOc2ccnc(C(=N)N)c2)cn1 [Compound 12] )
**A:** 7.5
